# Test system: S. aureus^MR
# experimentalDetails: MIC by broth microdilution (aerobic pathogens), test strain 3
# Format: cell-based, Methicillin resistant Staphylococcus aureus
# assayContext: Staphylococcus aureus; test strain 3, S. aureus^MR (methicillin resistant); read-out: MIC
endpointLabel: MIC (µg/mL)
Answer in µg/mL, number only, no unit symbol.

Consider the worked cases shown below.
C/C=C(\NC(=O)c1csc(-c2csc(-c3ccc4c(n3)-c3csc(n3)[C@H]([C@@H](C)O)NC(=O)c3csc(n3)[C@H](C(C)C)NC(=O)c3csc(n3)/C(=C/C)NC(=O)[C@H]([C@@H](C)O)NC(=O)c3csc-4n3)n2)n1)C(=O)NCCn1cnc([N+](=O)[O-])n1 = 1
C/C=C1\NC(=O)[C@H]([C@@H](C)O)NC(=O)c2csc(n2)-c2ccc(-c3nc(-c4nc(C(=O)NC5(C(=O)NCCCB(O)O)CC5)cs4)cs3)nc2-c2csc(n2)[C@H]([C@@H](C)O)NC(=O)c2csc(n2)[C@H](C(C)C)NC(=O)c2csc1n2 = 0.5
C/C=C1\NC(=O)[C@H]([C@@H](C)O)NC(=O)c2csc(n2)-c2ccc(-c3nc(-c4nc(C(=O)NC5(C(=O)NCCN6CCN(C)CC6)CC5)cs4)cs3)nc2-c2csc(n2)[C@H]([C@@H](C)O)NC(=O)c2csc(n2)[C@H](C(C)C)NC(=O)c2csc1n2 = 1
C/C=C(\NC(=O)c1csc(-c2csc(-c3ccc4c(n3)-c3csc(n3)[C@H]([C@@H](C)O)NC(=O)c3csc(n3)[C@H](C(C)C)NC(=O)c3csc(n3)/C(=C/C)NC(=O)[C@H]([C@@H](C)O)NC(=O)c3csc-4n3)n2)n1)C(=O)NCCN1CCN(C(C)C)CC1 = 1
C/C=C1\NC(=O)[C@H]([C@@H](C)O)NC(=O)c2csc(n2)-c2ccc(-c3nc(-c4nc(C(=O)NC5(C(=O)NCCCN6CCOCC6)CC5)cs4)cs3)nc2-c2csc(n2)[C@H]([C@@H](C)O)NC(=O)c2csc(n2)[C@H](C(C)C)NC(=O)c2csc1n2 = 0.5

Task: Quick check: MIC on S. aureus^MR, item `C/C=C(\NC(=O)c1csc(-c2csc(-c3ccc4c(n3)-c3csc(n3)[C@H]([C@@H](C)O)NC(=O)c3csc(n3)[C@H](C(C)C)NC(=O)c3csc(n3)/C(=C/C)NC(=O)[C@H]([C@@H](C)O)NC(=O)c3csc-4n3)n2)n1)C(=O)NCCCN1CCOCC1` ?
Output: 1

Task: Quick check: MIC on S. aureus^MR, item `C/C=C(\NC(=O)c1csc(-c2csc(-c3ccc4c(n3)-c3csc(n3)[C@H]([C@@H](C)O)NC(=O)c3csc(n3)[C@H](C(C)C)NC(=O)c3csc(n3)/C(=C/C)NC(=O)[C@H]([C@@H](C)O)NC(=O)c3csc-4n3)n2)n1)C(=O)NCCN1CCN(C)CC1` ?
Output: 1

Task: Quick check: MIC on S. aureus^MR, item CC(=O)NC[C@H]1CN(c2ccc(N3CCOCC3)c(F)c2)C(=O)O1 [Lin, Linezolid, reference compound] ?
Output: 4

Task: Quick check: MIC on S. aureus^MR, item `C/C=C1\NC(=O)[C@H]([C@@H](C)O)NC(=O)c2csc(n2)-c2ccc(-c3nc(-c4nc(C(=O)NC5(C(=O)NCCCN6C(=O)CNC6=O)CC5)cs4)cs3)nc2-c2csc(n2)[C@H]([C@@H](C)O)NC(=O)c2csc(n2)[C@H](C(C)C)NC(=O)c2csc1n2` ?
Output: 1

Task: Quick check: MIC on S. aureus^MR, item `C/C=C(\NC(=O)c1csc(-c2csc(-c3ccc4c(n3)-c3csc(n3)[C@H]([C@@H](C)O)NC(=O)c3csc(n3)[C@H](C(C)C)NC(=O)c3csc(n3)/C(=C/C)NC(=O)[C@H]([C@@H](C)O)NC(=O)c3csc-4n3)n2)n1)C(=O)NCCn1c([N+](=O)[O-])cnc1C` ?
Output: 1

Values compiled from patent US12637478B2.
